Data origin, for the record: paper PMC5008178

test system: chemotaxis pathway in B. subtilis; assay: microbe, parasite or virus in culture; format: cell-based, Bacillus subtilis; conditions: Bacillus subtilis, read-out: EC50 of attractant FRET response
pEC50: −log10 of the molar value.
Field: pEC50. Provide a value for each of the compounds that follow.

{"compound": "N[C@@H](CS)C(=O)O", "pEC50": "> 6.00"}
{"compound": "O=C(O)[C@@H]1CCCN1", "pEC50": "> 6.00"}
{"compound": "NC(=O)C[C@H](N)C(=O)O", "pEC50": "> 6.00"}

Kindly review the next compound as well.
(Q) What value of pEC50 has been recorded for this entry: N[C@@H](CC(=O)O)C(=O)O [Aspartate]
(A) < 3.00
